- target-of-assay: cAMP-dependent protein kinase catalytic subunit-alpha (PKACa) (Homo sapiens, UniProt P17612)
- assay: In vitro phosphorylation of nucleocapsid peptides, ADP-Glo, PKACa
- Assay type: biochemical
- setup-conditions: peptide ~250 μM, 250 μM ATP, 30 min at 30° C.; duplicate measurements
So I've got a bunch of sequences here, and I need their Relative Phosphorylation to Autophosphorylation Control (set at 100), PKACa values.
Numbers only.

// solved cases for Relative Phosphorylation to Autophosphorylation Control (set at 100), PKACa follow
Consider SQASSRSSSRSRNS [SCV2-N [180-193], synthetic peptide modeled after SARS-CoV-2 nucleocapsid protein phosphorylation sites] . Its measured Relative Phosphorylation to Autophosphorylation Control (set at 100), PKACa is 123

Reported Relative Phosphorylation to Autophosphorylation Control (set at 100), PKACa of RGGSQASSRSSSRS [SCV2-N [177-190], synthetic peptide modeled after SARS-CoV-2 nucleocapsid protein phosphorylation sites] : 162

Here is another sequence to look at.
The sequence listed as SSRSRNSSRNSTPG [SCV2-N [187-200], synthetic peptide modeled after SARS-CoV-2 nucleocapsid protein phosphorylation sites] has a reported Relative Phosphorylation to Autophosphorylation Control (set at 100), PKACa of 485

###

- target-of-assay: casein kinase 2-alpha-1 (CK2a1) (Homo sapiens)
- Construct: GST; purchased SignalChem C70-10G
- Sequence (P68400 whole entry): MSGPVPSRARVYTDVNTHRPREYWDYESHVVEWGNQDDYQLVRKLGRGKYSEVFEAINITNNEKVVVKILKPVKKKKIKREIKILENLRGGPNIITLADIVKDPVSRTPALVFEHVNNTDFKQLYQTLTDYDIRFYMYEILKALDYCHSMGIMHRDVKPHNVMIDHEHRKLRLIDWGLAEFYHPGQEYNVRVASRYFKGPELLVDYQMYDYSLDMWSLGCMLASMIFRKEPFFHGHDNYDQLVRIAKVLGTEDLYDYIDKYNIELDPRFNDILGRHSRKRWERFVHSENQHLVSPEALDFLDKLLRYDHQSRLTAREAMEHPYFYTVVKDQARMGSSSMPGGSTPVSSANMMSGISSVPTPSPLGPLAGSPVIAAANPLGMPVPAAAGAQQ
- assay: In vitro phosphorylation of nucleocapsid peptides, ADP-Glo, CK2a1
- Format: biochemical
- setup-conditions: peptide ~250 μM, 250 μM ATP, 30 min at 30° C.; duplicate measurements
Where no end group is shown, it is not given here. [ ]: non-standard residue; d: D form. pT = C[C@@H](OP(=O)(O)O)[C@H](N)C(=O)O; pS = N[C@@H](COP(=O)(O)O)C(=O)O
experimental-endpoint: Relative Phosphorylation to Autophosphorylation Control (set at 100), CK2a1
One number for each entry.

Entry SSRSRNSSRNS(pT)PG (SSRSRNSSRNS[pT]PG) [SCV2-N [187-200]-pT198, synthetic peptide modeled after SARS-CoV-2 nucleocapsid protein phosphorylation sites, pre-phosphorylated at T198] , Relative Phosphorylation to Autophosphorylation Control (set at 100), CK2a1 reported as 102

Your task in this section: give Relative Phosphorylation to Autophosphorylation Control (set at 100), CK2a1 for each listed record.
1. SSRSRNSSRNSTPG [SCV2-N [187-200], synthetic peptide modeled after SARS-CoV-2 nucleocapsid protein phosphorylation sites]
2. SQASSRSSSR(pS)RNS (SQASSRSSSR[pS]RNS) [SCV2-N [180-193]-pS190, synthetic peptide modeled after SARS-CoV-2 nucleocapsid protein phosphorylation sites, pre-phosphorylated at S190]
3. SQASSRSSSRSRNS [SCV2-N [180-193], synthetic peptide modeled after SARS-CoV-2 nucleocapsid protein phosphorylation sites]

## Result
1. 103
2. 100
3. 101

###

- target-of-assay: cyclin-dependent kinase 2/cyclin A2 (CDK2/A2) (Homo sapiens, UniProt P24941)
- assay: In vitro phosphorylation of nucleocapsid peptides, ADP-Glo, CDK2/cyclin A2
- Format: biochemical
- setup-conditions: peptide ~250 μM, 250 μM ATP, 30 min at 30° C.; duplicate measurements
Where no end group is shown, it is not given here. [ ]: non-standard residue; d: D form. pT = C[C@@H](OP(=O)(O)O)[C@H](N)C(=O)O; pS = N[C@@H](COP(=O)(O)O)C(=O)O
Provide the recorded Relative Phosphorylation to Autophosphorylation Control (set at 100), CDK2 + Cyclin A2 for the entries that follow.
Numbers only.

Here are 3 substances together with their reported answers.
The measured Relative Phosphorylation to Autophosphorylation Control (set at 100), CDK2 + Cyclin A2 associated with SSRSRNSSRNSTPG [SCV2-N [187-200], synthetic peptide modeled after SARS-CoV-2 nucleocapsid protein phosphorylation sites] reads 100

Reported Relative Phosphorylation to Autophosphorylation Control (set at 100), CDK2 + Cyclin A2 for RNSTPGSSRGT(pS)PAR (RNSTPGSSRGT[pS]PAR) [SCV2-N [195-209]-pS206, synthetic peptide modeled after SARS-CoV-2 nucleocapsid protein phosphorylation sites, pre-phosphorylated at S206] was 100

The measured Relative Phosphorylation to Autophosphorylation Control (set at 100), CDK2 + Cyclin A2 associated with RNSTPGSSRGTSPAR [SCV2-N [195-209], synthetic peptide modeled after SARS-CoV-2 nucleocapsid protein phosphorylation sites] reads 104

Now take the following substance into account.
Looking up SSRSRNSSRNS(pT)PG (SSRSRNSSRNS[pT]PG) [SCV2-N [187-200]-pT198, synthetic peptide modeled after SARS-CoV-2 nucleocapsid protein phosphorylation sites, pre-phosphorylated at T198] , I see its Relative Phosphorylation to Autophosphorylation Control (set at 100), CDK2 + Cyclin A2 listed as 101
